Where a name gives a salt, the structure may show the parent alone.
I'd appreciate it if you could supply IC50 values for the items below.

GET /values?readout=IC50&system=Jak2 (a.a. 828-1132) (Homo sapiens (Human), UniProt O60674)&item= N#CCC1(n2cc(-c3c(C#N)cnc4[nH]ccc34)cn2)CN(C2CCN(C(=O)c3cc(C(F)(F)F)ncc3Cl)CC2)C1 50 to 100 nM

Lookup: IC50 / Jak2 (a.a. 828-1132) (Homo sapiens (Human), UniProt O60674) / COc1cscc1C(=O)N1CCC(N2CC(CC#N)(n3cc(-c4ncnc5[nH]ccc45)cn3)C2)CC1 ≤ 10 nM

Param readout= IC50; system= Jak2 (a.a. 828-1132) (Homo sapiens (Human), UniProt O60674); entry= N#CCC1(n2cc(-c3ncnc4[nH]ccc34)cn2)CN(C2CCN(C(=O)c3cc(CN4CCC(F)(F)C4)nc(C(F)(F)F)n3)CC2)C1 [Example 379, TFA] ; returns value. 50 to 100 nM
